# Tested on: Huh7 cells
# ASSAY DETAILS: LD content in Huh7 cells pre-treated with insulin, Oil-Red-O staining, absorbance OD 540 nm
# Assay type: cell-based
# SETTINGS: Homo sapiens, Huh-7, Huh7 cells, procedure of Example 3; read-out: LD content inhibition (EC50)
Lab note: compare EC50 with 900 nM, writing criterion met if less and criterion not met if equal or more.

NC(=O)c1cc(-c2ccc(Cl)cc2)cc(-c2ccc(S(N)(=O)=O)cc2)c1NC(=O)CCO [HPN-01516] = criterion not met
CC(=O)Nc1c(C(N)=O)cc(-c2ccc(Cl)cc2)cc1-c1ccc(S(N)(=O)=O)cc1 [HPN-01501] = criterion not met
NC(=O)c1cc(Oc2cccc(C(=O)O)c2)cc(-c2ccc(S(N)(=O)=O)cc2)c1N [HPN-01318] = criterion met

Ask: Take the molecule NC(=O)c1cc(Nc2cccc(C(=O)O)c2)cc(-c2ccc(S(N)(=O)=O)cc2)c1N [HPN-01317] and say whether its EC50 is less than 900 nM.
Reply: criterion met

Ask: Dear reviewer, please state whether COC(=O)c1ccc(-c2cc(C(N)=O)c(N)c(-c3ccc(S(N)(=O)=O)cc3)c2)cc1 [HPN-01301] has EC50 strictly beneath 900 nM.
Reply: criterion not met

Ask: For this molecule, is EC50 lower than 900 nM? NC(=O)c1cc(-c2ccc(Br)cc2)cc(-c2ccc(S(N)(=O)=O)cc2)c1NC(=O)C1CC1 [HPN-01525]
Reply: criterion not met

Ask: I wonder whether Nc1c(C(=O)Nc2ccccc2)cc(-c2ccc(Br)cc2)cc1-c1ccc(S(N)(=O)=O)cc1 [HPN-01612] has EC50 below 900 nM. Can you tell?
Reply: criterion met

* * *

# Tested on: Huh7 cells
# ASSAY DETAILS: LD content in Huh7 cells pre-treated with insulin, Oil-Red-O staining, absorbance OD 540 nm
# Assay type: cell-based
# SETTINGS: Homo sapiens, Huh-7, Huh7 cells, procedure of Example 3; read-out: LD content inhibition (EC50)
RESULT TYPE: pEC50
API: returns pEC50 as number; meaning -log10 of concentration in mol/L.

NC(=O)c1cc(-c2ccc(Cl)nc2)cc(-c2ccc(S(N)(=O)=O)cc2)c1N = 5.87
Nc1c(C(=O)Nc2cccc(F)c2)cc(-c2ccc(Cl)cc2)cc1-c1ccc(S(N)(=O)=O)cc1 = 5.86
C[Si](C)(C)C#Cc1cc(C(N)=O)c(N)c(-c2ccc(S(N)(=O)=O)cc2)c1 = 6.09
NC(=O)c1cc(/C=C/C(=O)OCc2ccccc2)cc(-c2ccc(S(N)(=O)=O)cc2)c1N = 6.17
NC(=O)c1cc(-c2ccc(Cl)cc2)cc(Nc2cccc(S(N)(=O)=O)c2)c1N = 6.13
NC(=O)c1cc(C#CCO)cc(-c2ccc(S(N)(=O)=O)cc2)c1N = 5.92
NC(=O)c1cc(C2CCC(Br)CC2)cc(-c2ccc(S(N)(=O)=O)cc2)c1N (centres unmarked) = 6.08

Ask: Need pEC50, item "NC(=O)c1cc(C#CCOC(=O)c2ccccn2)cc(-c2ccc(S(N)(=O)=O)cc2)c1N"
Reply: 6.11

* * *

# Test system: SREBP-2
# ASSAY DETAILS: SREBP-2 expression in cultured primary human hepatocytes
# Assay type: cell-based
# SETTINGS: Homo sapiens, Hepatocyte, procedure of Example 6, read-out: SREBP-2 mRNA inhibition (EC50)
# From the text: FIG. 9. Effects of HPN-01 on the expression of SREBP-1 (master regulator of hepatic glucose metabolism and fatty acid synthesis) and SREBP-2 (master regulator of cholesterol homeostasis in cells) in cultured primary human hepatocytes. […]
RESULT TYPE: EC50 (µM)
Supply the numeric figure in µM, leaving out any unit text.

Ask: What value of EC50 has been recorded for this entry: Nc1c(C(=O)Nc2ccccc2)cc(-c2ccc(Cl)cc2)cc1-c1ccc(S(N)(=O)=O)cc1 [HPN-01611]
Reply: 2.24

* * *

// reported log10(EC50) for each item listed
# Tested on: Huh7 cells
# ASSAY DETAILS: LD content in Huh7 cells pre-treated with insulin, Oil-Red-O staining, absorbance OD 540 nm
# Assay type: cell-based
# SETTINGS: Homo sapiens, Huh-7, Huh7 cells, procedure of Example 3; read-out: LD content inhibition (EC50)
Base-10 log of EC50, unit nM.

NC(=O)c1cc(Nc2ccc(Cl)cc2)cc(-c2ccc(S(N)(=O)=O)cc2)c1N [HPN-01312] = 3.16
NC(=O)c1cc(/C=C/C(=O)Nc2ccc(O)cc2)cc(-c2ccc(S(N)(=O)=O)cc2)c1N [HPN-01122] = 3.39
NC(=O)c1cc(C#Cc2ccc(Br)cc2)cc(-c2ccc(S(N)(=O)=O)cc2)c1N [HPN-01207] = 2.99
NC(=O)c1cc(-c2ccc(Cl)cc2)cc(-c2ccc(S(N)(=O)=O)cc2)c1NCc1cccc(Cl)c1 [HPN-01532] = 3.06
NC(=O)c1cc(C#CCOC(=O)c2ccccc2Cl)cc(-c2ccc(S(N)(=O)=O)cc2)c1N [HPN-01210] = 2.72

Ask: For the molecule shown here, NC(=O)c1cc(/C=C/c2ccccc2Cl)cc(-c2ccc(S(N)(=O)=O)cc2)c1N [HPN-01108] , give the reported log10(EC50).
Reply: 2.74

Ask: log10(EC50) lookup needed for CC(C)NC(=O)Nc1ccc(-c2cc(-c3ccc(Cl)cc3)cc(C(N)=O)c2N)cc1 [HPN-01430] , thanks.
Reply: 3.73

Ask: Suppose we examine the molecule NC(=O)c1cc(-c2ccc(Cl)cc2)cc(-c2ccc(S(N)(=O)=O)cc2)c1NCCc1ccccc1 [HPN-01534] ; what log10(EC50) value has been reported?
Reply: 3.05

* * *

# Tested on: Huh7 cells
# ASSAY DETAILS: LD content in Huh7 cells pre-treated with insulin, Oil-Red-O staining, absorbance OD 540 nm
# Type: cell-based
# SETTINGS: Homo sapiens, Huh-7, Huh7 cells, procedure of Example 3; read-out: LD content inhibition (EC50)
# strict inequality: EC50 < 0.6 µM yields met, everything else yields not met

NC(=O)c1cc(/C=C/c2cccc(Cl)c2)cc(-c2ccc(S(N)(=O)=O)cc2)c1N = met
NC(=O)c1cc(-c2ccc(Cl)cc2)cc(Oc2cccc(S(=O)(=O)NCCO)c2)c1N = not met
NC(=O)c1cc(Oc2cccc(Cl)c2)cc(-c2ccc(S(N)(=O)=O)cc2)c1N = not met
Nc1c(C(=O)Nc2ccc[nH]2)cc(-c2ccc(Cl)cc2)cc1-c1ccc(S(N)(=O)=O)cc1 = not met
CCCC(=O)OCC#Cc1cc(C(N)=O)c(N)c(-c2ccc(S(N)(=O)=O)cc2)c1 = met
Nc1c(C(=O)Nc2ccc(O)c(O)c2)cc(-c2ccc(Br)cc2)cc1-c1ccc(S(N)(=O)=O)cc1 = not met

Ask: Dear colleague, could you confirm whether EC50 of "COC(=O)c1cccc(Nc2cc(C(N)=O)c(N)c(-c3ccc(S(N)(=O)=O)cc3)c2)c1" falls below 0.6 µM? Thanks.
Reply: not met

* * *

# Tested on: SREBP-2
# ASSAY DETAILS: SREBP-2 expression in cultured primary human hepatocytes
# Assay type: cell-based
# SETTINGS: Homo sapiens, Hepatocyte, procedure of Example 6, read-out: SREBP-2 mRNA inhibition (EC50)
RESULT TYPE: pEC50
Give only the number. pEC50 is defined as minus log10 of concentration in molar units.

NC(=O)c1cc(-c2c[nH]c(Br)c2)cc(-c2ccc(S(N)(=O)=O)cc2)c1N [HPN-01311] = 5.25
NC(=O)c1cc(C#CCO)cc(-c2ccc(S(N)(=O)=O)cc2)c1N [HPN-01201] = 5.16
NC(=O)c1cc(/C=C/C(=O)NCc2ccccc2)cc(-c2ccc(S(N)(=O)=O)cc2)c1N [HPN-01131] = 5.65

Here is another compound to look at.
Ask: pEC50 for NC(=O)c1cc(-c2ccc(Cl)cc2)cc(-c2ccc(S(N)(=O)=O)cn2)c1N [HPN-01428] ?
Reply: 4.73

* * *

# System: SREBP-2
# ASSAY DETAILS: SREBP-2 expression in cultured primary human hepatocytes
# Assay type: cell-based
# SETTINGS: Homo sapiens, Hepatocyte, procedure of Example 6, read-out: SREBP-2 mRNA inhibition (EC50)
RESULT TYPE: EC50 (µM)
Number only, in µM; omit the unit.

NC(=O)c1cc(/C=C/C(=O)Nc2ccc(O)cc2)cc(-c2ccc(S(N)(=O)=O)cc2)c1N [HPN-01122] = 7.29
CCCCNc1c(C(N)=O)cc(-c2ccc(Cl)cc2)cc1-c1ccc(S(N)(=O)=O)cc1 [HPN-01533] = 11.7
CC(C)NC(=O)Nc1ccc(-c2cc(-c3ccc(Cl)cc3)cc(C(N)=O)c2N)cc1 [HPN-01430] = 4.37
Cc1ccc(NC(=O)/C=C/c2cc(C(N)=O)c(N)c(-c3ccc(S(N)(=O)=O)cc3)c2)cc1 [HPN-01126] = 4.54
Nc1c(C(=O)Nc2ccc(F)c(F)c2)cc(-c2ccc(Cl)cc2)cc1-c1ccc(S(N)(=O)=O)cc1 [HPN-01615] = 11.7

Ask: Any idea what EC50 was measured for NC(=O)c1cc(Sc2ccc(Cl)cc2)cc(-c2ccc(S(N)(=O)=O)cc2)c1N [HPN-01314] ?
Reply: 7.71

Ask: Report EC50 for NC(=O)c1cc(C#Cc2cccc(Br)c2)cc(-c2ccc(S(N)(=O)=O)cc2)c1N [HPN-01208] please.
Reply: 5.77
